measurementNotes: Cytotoxicity against human Huh7.5 cells infected with HCV genotype 4a assessed as morphological changes after 72 hrs by inverted light microscopy
Type: cell-based, Huh-7
A collection of molecules and their measured CC50 at 72 h
The answer is to be given in µM; state only the numeric part.

Field: example entries. Status: answers known.
>  <substanceSmiles>
S=c1[nH]nc2c3c(-c4ccccc4)c(-c4ccccc4)n(C4CCCCC4)c3ncn12

>  <CC50 at 72 h / µM>
188

$$$$
>  <substanceSmiles>
Cc1nnc2c3c(-c4ccccc4)c(-c4ccccc4)n(-c4cccc(Cl)c4)c3ncn12

>  <CC50 at 72 h / µM>
161

$$$$
>  <substanceSmiles>
Clc1cccc(-n2c(-c3ccccc3)c(-c3ccccc3)c3c(Nc4ccccc4)ncnc32)c1

>  <CC50 at 72 h / µM>
148

$$$$
>  <substanceSmiles>
Cc1cc(C)n(-c2ncnc3c2c(-c2ccccc2)c(-c2ccccc2)n3-c2ccc(Cl)cc2)n1

>  <CC50 at 72 h / µM>
147

$$$$

Given the molecule `COc1ccc(/C=N/Nc2ncnc3c2c(-c2ccccc2)c(-c2ccccc2)n3-c2cccc(Cl)c2)cc1` , write its reported CC50 at 72 h. 151

Given the molecule `C(=N\Nc1ncnc2c1c(-c1ccccc1)c(-c1ccccc1)n2C1CCCCC1)/c1ccccc1` , write its reported CC50 at 72 h. 148

Given the molecule `N#Cc1c(-c2ccccc2)c(-c2ccccc2)n(-c2cccc(Cl)c2)c1N` , write its reported CC50 at 72 h. 189

Given the molecule `Cc1cc(C)n(-c2ncnc3c2c(-c2ccccc2)c(-c2ccccc2)n3C2CCCCC2)n1` , write its reported CC50 at 72 h. 156

Given the molecule `Clc1ccc(-n2c(-c3ccccc3)c(-c3ccccc3)c3c2ncn2cnnc32)cc1` , write its reported CC50 at 72 h. 190
